Where these numbers come from: patent US20250326771A1

- target.desc: cIAP1-BIR3 (Homo sapiens (Human))
- Sequence (Q13490 253-363): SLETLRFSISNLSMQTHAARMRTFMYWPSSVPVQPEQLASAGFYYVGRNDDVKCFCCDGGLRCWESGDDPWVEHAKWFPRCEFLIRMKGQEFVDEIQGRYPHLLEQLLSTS
- assay.procedure: BIR binding assay (FRET competition), cIAP1 BIR3
- condition.notes: fold separation (FS) for cIAP1
experimental.readout: cIAP1 BIR3 vs BIR2 separation window

Reference set, count: 8
Entry under test: `C[C@@H]1CN(CC(=O)N2CC(C)(C)c3[nH]c(=O)c(Cc4ccc(F)cc4)cc32)[C@@H](CN2CCO[C@H](COCc3cccc(COC[C@@H]4CN(C[C@H]5CN[C@H](C)CN5CC(=O)N5CC(C)(C)c6[nH]c(=O)c(Cc7ccc(F)cc7)cc65)CCO4)n3)C2)CN1` . Its cIAP1 BIR3 vs BIR2 separation window was +++ (10,000>FS>1,000)

Entry under test: `C[C@@H]1CN(CC(=O)N2CC(C)(C)c3[nH]c(=O)c(Cc4ccc(C(F)F)cc4)cc32)[C@@H](CN2CCO[C@H](C(=O)NCc3ccc(CNC(=O)[C@@H]4CN(C[C@H]5CN[C@H](C)CN5CC(=O)N5CC(C)(C)c6[nH]c(=O)c(Cc7ccc(C(F)F)cc7)cc65)CCO4)cc3)C2)CN1` . Its cIAP1 BIR3 vs BIR2 separation window was ++ (1,000>FS>100)

Entry under test: `C[C@@H]1CN(CC(=O)N2CC(C)(C)c3[nH]c(=O)c(Cc4ccc(F)cc4)cc32)[C@@H](CN2CCC(CC(=O)NCc3ccc(CNC(=O)CC4CCN(C[C@H]5CN[C@H](C)CN5CC(=O)N5CC(C)(C)c6[nH]c(=O)c(Cc7ccc(F)cc7)cc65)CC4)cc3)CC2)CN1` . Its cIAP1 BIR3 vs BIR2 separation window was +++ (10,000>FS>1,000)

Entry under test: `C[C@@H]1CN(CC(=O)N2CC(C)(C)c3[nH]c(=O)c(Cc4ccc(F)cc4)cc32)[C@@H](CN2CCN(Cc3cn(CCC(=O)N4CCN(C[C@H]5CN[C@H](C)CN5CC(=O)N5CC(C)(C)c6[nH]c(=O)c(Cc7ccc(F)cc7)cc65)[C@H](C)C4)nn3)C[C@H]2C)CN1` . Its cIAP1 BIR3 vs BIR2 separation window was ++ (1,000>FS>100)

Entry under test: `C[C@@H]1CN(CC(=O)N2CC(C)(C)c3[nH]c(=O)c(Oc4ccccc4)cc32)[C@@H](CN2CCO[C@H](C(=O)NCc3ccc(CNC(=O)[C@@H]4CN(C[C@H]5CN[C@H](C)CN5CC(=O)N5CC(C)(C)c6[nH]c(=O)c(Oc7ccccc7)cc65)CCO4)cc3)C2)CN1` . Its cIAP1 BIR3 vs BIR2 separation window was +++ (10,000>FS>1,000)

Entry under test: `C[C@@H]1CN(CC(=O)N2CC(C)(C)c3[nH]c(=O)c(Cc4ccc(F)cc4)cc32)[C@@H](CN2CCO[C@H](C(=O)NCCCC(=O)N3CCN(C[C@H]4CN[C@H](C)CN4CC(=O)N4CC(C)(C)c5[nH]c(=O)c(Cc6ccc(F)cc6)cc54)[C@H](C)C3)C2)CN1` . Its cIAP1 BIR3 vs BIR2 separation window was ++ (1,000>FS>100)

Entry under test: `C[C@@H]1CN(CC(=O)N2CC(C)(C)c3[nH]c(=O)c(Cc4ccc(F)cc4)cc32)[C@@H](CN2CCC(CNC(=O)Cc3ccc(CC(=O)NCC4CCN(C[C@H]5CN[C@H](C)CN5CC(=O)N5CC(C)(C)c6[nH]c(=O)c(Cc7ccc(F)cc7)cc65)CC4)cc3)CC2)CN1` . Its cIAP1 BIR3 vs BIR2 separation window was +++ (10,000>FS>1,000)

Entry under test: `C[C@@H]1CN(CC(=O)N2CC(C)(C)c3[nH]c(=O)c(Cc4ccc(F)cc4)cc32)[C@@H](CN2CCO[C@H](C(=O)NCCCCCCCCNC(=O)[C@@H]3CN(C[C@H]4CN[C@H](C)CN4CC(=O)N4CC(C)(C)c5[nH]c(=O)c(Cc6ccc(F)cc6)cc54)CCO3)C2)CN1` . Its cIAP1 BIR3 vs BIR2 separation window was +++ (10,000>FS>1,000)

New cases:
Entry under test: `C[C@@H]1CN(CC(=O)N2CC(C)(C)c3ncc(Cc4cccnc4)cc32)[C@@H](CN2CCO[C@H](COc3cccc(OC[C@@H]4CN(C[C@H]5CN[C@H](C)CN5CC(=O)N5CC(C)(C)c6ncc(Cc7cccnc7)cc65)CCO4)c3)C2)CN1` . Its cIAP1 BIR3 vs BIR2 separation window was ++++ (FS>10,000)

Entry under test: `C[C@@H]1CN(CC(=O)N2CC(C)(C)c3[nH]c(=O)c(Cc4ccc(F)cc4)cc32)[C@@H](CN2CCC(CN(C)C(=O)Cc3ccc(C(=O)N(C)CC4CCN(C[C@H]5CN[C@H](C)CN5CC(=O)N5CC(C)(C)c6[nH]c(=O)c(Cc7ccc(F)cc7)cc65)CC4)cc3)CC2)CN1` . Its cIAP1 BIR3 vs BIR2 separation window was ++++ (FS>10,000)

Entry under test: `C[C@@H]1CN(CC(=O)N2CC(C)(C)c3[nH]c(=O)c(Cc4ccc(F)cc4)cc32)[C@@H](CN2CCN(CCc3cn(CCCC(=O)N4CCN(C[C@H]5CN[C@H](C)CN5CC(=O)N5CC(C)(C)c6[nH]c(=O)c(Cc7ccc(F)cc7)cc65)[C@H](C)C4)nn3)C[C@H]2C)CN1` . Its cIAP1 BIR3 vs BIR2 separation window was ++ (1,000>FS>100)
